The values you see were collected from the supplement of paper PMC10201428.

# Test system: VchCAST RNA-guided transposition machinery (E. coli BL21(DE3) host, lacZ target)
# PROTOCOL NOTES: relative integration efficiency (T-LR orientation) vs wild-type transposon end (log2 (normalized fold change)); transposon end mutated: right end (5 bp flank + 75 bp right end); higher = more efficient transposition
For each record, write down the corresponding relative integration efficiency (log2).

Give relative integration efficiency (log2) for each listed item.
1. ACATTTGTCGATACAACCATAAAATGATAATTACACCCATAAATTCATCATTATCACACCCAATTTAACTATAACGCTCTGATCATAGTCAGACCAACATTGCTACGACCCGTATTCGCACCGACAC
2. ACATTTGTTGATACAACCATAAAATCATAATTACACCCATAAATTCATAATTATCACACCCATAAATTCATATTGCCTCTGATCATAGTCAGACCAACATTGCTACGACCCGTATTCGCACCGACAC
3. ACATTTGTTGATACAACCATAAAATGATAATTCACCCATAAATTGATAATTATCACACCCACATTTAACTATAACGCTCTGATCATAGTCAGACCAACATTGCTACGACCCGTATTCGCACCGACAC
4. ACATTTGTTGATACACCCATAAATTGATATTGCCAACCATAAAGTGATATTTATCACAACCATAAAATGATAATTACTCTGATCATAGTCAGACCAACATTGCTACGACCCGTATTCGCACCGACAC
5. ACATTTGTAAAAACAACCATAAAATGATAATTACACCCATAAATTGATAATTATCACACCCATAAATTGATATTGCCTCTGATCATAGTCAGACCAACATTGCTACGACCCGTATTCGCACCGACAC

(A)
1. 1.45
2. -1.52
3. 1.31
4. -0.362
5. -0.286

----------
# Test system: VchCAST RNA-guided transposition machinery (E. coli BL21(DE3) host, lacZ target)
# PROTOCOL NOTES: relative integration efficiency (T-RL orientation) vs wild-type transposon end (log2 (normalized fold change)); transposon end mutated: right end (5 bp flank + 75 bp right end); higher = more efficient transposition
READOUT KIND: relative integration efficiency (log2)
Answers are plain numbers.

The cases that follow already have their relative integration efficiency (log2) on record.
| SEQUENCE DATA | relative integration efficiency (log2) |
| --- | --- |
| ACATTTGTTGATACAACCATAAAATCATTATTACACCCATTAATTGATAATTATCACACCCAATTTAACTATAACGCTCTGATCATAGTCAGACCAACATTGCTACGACCCGTATTCGCACCGACAC | -3.73 |
| ACATTTGTTGATACACCCATAAATTGATATTGCCAACCATAAAATGATAATTATCACAACCATAAAATGATAATTACTCTGATCATAGTCAGACCAACATTGCTACGACCCGTATTCGCACCGACAC | -0.123 |
| ACATTTGTTGATACAACCATAAAATGATAATTACACCCATAAATTGATAAGGATCACACCCATAAATTGATATTGCCTCTGATCATAGTCAGACCAACATTGCTACGACCCGTATTCGCACCGACAC | -0.665 |
| ACATTTGTTGATACCACCATAAAATGATAATTACCCCCATAAATTGATAATTATCACCCCCATAAATTGATATTGCCTCTGATCATAGTCAGACCAACATTGCTACGACCCGTATTCGCACCGACAC | 0.364 |
| ACATTTGTTGATACACCCATAAATTGATAATTACAACCATAAGTTGATATTTTTCACAACCATAAAGTGATATTTACTCTGATCATAGTCAGACCAACATTGCTACGACCCGTATTCGCACCGACAC | -0.613 |
| ACATTTGTAAAAAAAACCATACGTTGATTTTACGAAACCATACGCTGAAATAATCACACCCATAAATTGATATTGCCTCTGATCATAGTCAGACCAACATTGCTACGACCCGTATTCGCACCGACAC | -7.11 |
| ACATTTGTTGATACAACCAGCAAATGATAATTACACCCATAAATTGATAATTATCACACCCATAAATTGATATTGCCTCTGATCATAGTCAGACCAACATTGCTACGACCCGTATTCGCACCGACAC | -2.72 |
| ACATTTGTTGATACAACCATAAAATGATAATTACAACCATAAAGTGATATTTATCACAACCATAAGTTGATATTTTCTCTGATCATAGTCAGACCAACATTGCTACGACCCGTATTCGCACCGACAC | -0.0894 |
| ACATTGGTGGATACAACCATAAAATGATAATTACACCCATAAATTCATAATTATCACACCCAATTTAACTATAACGCTCTGATCATAGTCAGACCAACATTGCTACGACCCGTATTCGCACCGACAC | -6.19 |
| ACATTTGTTGATACAACCATAAAATGATAATTACACCACGCAATTGATAATTATCACACCCATAAATTGATATTGCCTCTGATCATAGTCAGACCAACATTGCTACGACCCGTATTCGCACCGACAC | -3.04 |

List the reported relative integration efficiency (log2) of each sequence below.
1. ACATTTGTGGATACAACCCTAAAATGATAATTACACCCATAAATTGATAATTATCACACCCAATTTAACTATAACGCTCTGATCATAGTCAGACCAACATTGCTACGACCCGTATTCGCACCGACAC
2. ACATTTGTTGATACAACCATAAAATGATAATTACACCCATAAATTGATCCGGCGACACAAACGCCCGGTCGCGGTAAGAGGATCATAGTCAGACCAACATTGCTACGACCCGTATTCGCACCGACAC
3. ACATTTGTTGCGCAAACCATAAAATGATAATTACACCCATAAATTGATAATTATCACACCCATAAATTGATATTGCCTCTGATCATAGTCAGACCAACATTGCTACGACCCGTATTCGCACCGACAC
4. ACATTTGTTGATACAACCATATTATGATAATTACACCCATATTTTGATAATTATCACACCCATATTTTGATATTGCCTCTGATCATAGTCAGACCAACATTGCTACGACCCGTATTCGCACCGACAC
5. ACATTTGTTGATACAACCATAAAATGATAATTACACCCATAAATTGATAATTATCACACCCATAAATTGATATTGCCTCTGATAACTTCGTATAATGTATACTATACGAAGTTATTCGCACCGACAC
6. ACATTTGTTGAGCCAACCATAAAATGATAATTACACCCATAAATTGATAATTATCACACCCATAAATTGATATTGCCTCTGATCATAGTCAGACCAACATTGCTACGACCCGTATTCGCACCGACAC

(A)
1: -1.73; 2: -0.942; 3: -0.839; 4: -0.576; 5: -1.3; 6: -0.297

Please state, for each entry, its recorded relative integration efficiency (log2).
1. ACATTTGTTGATACAACCATAAAATGATAATTACTGCCATAAATTGATAATTATCACACCCATAAATTGATATTGCCTCTGATCATAGTCAGACCAACATTGCTACGACCCGTATTCGCACCGACAC
2. ACATTTGTTGATACACCCATAAATTGATATTGCCACCCATAAATTGATAATTATCACACCCATAAATTGATAATTACTCTGATCATAGTCAGACCAACATTGCTACGACCCGTATTCGCACCGACAC
3. ACATTTGTTGATACAACCATAAAATGATAAATACACCCATAAATTGATAATGATGACACCGAATTTAACTATAACGCTCTGATCATAGTCAGACCAACATTGCTACGACCCGTATTCGCACCGACAC
4. ACATTTGTTGATACAACCATAAAATGATTATTACACCCATTAATTGATAATTATCACACCCAATTTAACTATAACGCTCTGATCATAGTCAGACCAACATTGCTACGACCCGTATTCGCACCGACAC

(A)
[-0.109, -0.597, -0.862, -1.4]

----------
# Test system: VchCAST RNA-guided transposition machinery (E. coli BL21(DE3) host, lacZ target)
# PROTOCOL NOTES: relative integration efficiency (T-LR orientation) vs wild-type transposon end (log2 (normalized fold change)); transposon end mutated: right end (5 bp flank + 75 bp right end); higher = more efficient transposition
READOUT KIND: relative integration efficiency (log2)
Give bare numbers.

// below: answered sequences
| SEQUENCE DATA | relative integration efficiency (log2) |
| --- | --- |
| ACATTTGTTGATACAACCATAAAATGATAATTACACCCATAAATTGATAATTATCACACCACTAAATTGATATTGCCTCTGATCATAGTCAGACCAACATTGCTACGACCCGTATTCGCACCGACAC | 2.35 |
| ACATTTGTTGATACAACCATAAAATGATAATTACACCCATAAATTGATAATTATCACACCCATAAATTGATATTGCCTCTGATCATAGTCAGACCACAACCATAAAATGATAATTAAGCACCGACAC | -0.205 |
| ACATTGGTTGATACAACCATAAAATGATAATTACACCCATAAATTCATAATTATCACACCCAATTTAACTATAACGCTCTGATCATAGTCAGACCAACATTGCTACGACCCGTATTCGCACCGACAC | -5.53 |
| ACATTTGTTGATACAACCATAAGTTGATATTTTCACCCATAAATTGATAATTATCAGTGGGTATTTAACTATAACGCTCTGATCATAGTCAGACCAACATTGCTACGACCCGTATTCGCACCGACAC | 2.55 |
| ACATTTGTTGATACAACCATAAAATGATAATTAATAATTATTTATAATCAGCAACTTAACCCACCCATAAATTGATAATTATCAACAAACGCCCGGTCGCGGTACTCTGATCATAGTCAGACCAACA | 0.743 |
| ACATTTGTTGATACAACCATAAGTTGATATTTTCAACCATATATTGATATCTCTCACAACCATAAAGTGATATTTACTCTGATCATAGTCAGACCAACATTGCTACGACCCGTATTCGCACCGACAC | -0.077 |

For every item in the list below, what is its measured relative integration efficiency (log2)?
1. ACATTTGTTGATCAAACCATAAAATGATAATTACACCCATAAATTGATAATTATCACACCCATAAATTGATATTGCCTCTGATCATAGTCAGACCAACATTGCTACGACCCGTATTCGCACCGACAC
2. ACATTTGTTGATACTACCATAAAATGATAATTACTCCCATAAATTGATAATTATCACTCCCATAAATTGATATTGCCTCTGATCATAGTCAGACCAACATTGCTACGACCCGTATTCGCACCGACAC
3. ACATTTGTTGATACAACCATAAAATGATAATTACACCCATAAATTGATAATGATGACACCGAATTTAACTATAACGCTCTGATCATAGTCAGACCAACATTGCTACGACCCGTATTCGCACCGACAC
4. TGTAATGTTGATACAACCATAAAATGATAATTACACCCATAAATTGATAATTATCACACCCATAAATTGATATTGCCTCTGATCATAGTCAGACCAACATTGCTACGACCCGTATTCGCACCGACAC

(A)
[-0.874, -0.0376, 2.06, -0.169]
